# assay-text: recombinant UMI read abundance after kanamycin selection (control-corrected) (log10(CPM+1)); higher = more efficient recombination; extreme values may be limits of the assay; sequences stand for … in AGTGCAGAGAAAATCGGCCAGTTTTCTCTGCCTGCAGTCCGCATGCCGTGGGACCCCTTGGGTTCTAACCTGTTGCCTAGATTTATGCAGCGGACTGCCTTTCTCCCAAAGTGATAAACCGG…AGGTTGGTTTCACT; site = the 11-nt donor;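 also: IS621 bridge recombinase in Escherichia coli cells against a fixed T5 target plasmid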
value-kind: recombinant UMI read abundance (log10)
Lab note: jot down the number only; don't add units.

Consider the sequence AAGCATGCATGGACCGGTTTTCCCGGTAATCCGTATTTGGG (site AAGCATGCTCC) . State its measured recombinant UMI read abundance (log10).
0.297

Tell us which recombinant UMI read abundance (log10) value is on record for TCCACCGCATGGACCGGTTTTCCCGGTAATCCGTATTTGCG (site TCCAGCGCTCG)
0.0215

Please report the measured recombinant UMI read abundance (log10) for ACGCGTCCATGGACCGGTTTTCCCGGTAATCCGTATTTGAC (site ACGCGTCCTGT)
1.55

Identify recombinant UMI read abundance (log10) associated with the sequence GGGCAATCATGGACCGGTTTTCCCGGTAATCCGTATTTGTG (site GGGCAATCTCA)
1.92

Return value of recombinant UMI read abundance (log10) for input TGGCCAGCATGGACCGGTTTTCCCGGTAATCCGTATTTGGC (site TGGCCGGCTGC) , no commentary.
0

Return recombinant UMI read abundance (log10) (reported value) for this sequence: CGGGAGTCATGGACCGGTTTTCCCGGTAATCCGTATTTGCC (site CGGGAGTCTGT)
1.75

Check the records and state recombinant UMI read abundance (log10) for AGGAAAACATGGACCGGTTTTCCCGGTAATCCGTATTTGCG (site AGGAAAACTCG)
1.5

Give reported recombinant UMI read abundance (log10) value for CGTATGGCATGGACCGGTTTTCCCGGTAATCCGTATTTGCT (site CGTTTGGCTAG)
0

Report measured recombinant UMI read abundance (log10); entry is CCGGTAGCATGGACCGGTTTTCCCGGTAATCCGTATTTGTG (site CCGATAGCTCA)
0

Report measured recombinant UMI read abundance (log10); entry is GTTCGAGCATGGACCGGTTTTCCCGGTAATCCGTATTTGGA (site GTTCGAGCTTT)
0.942

Specify recombinant UMI read abundance (log10) for CCTAAAGCATGGACCGGTTTTCCCGGTAATCCGTATTTGCT (site CCTAAAGCTAG) and stop.
0

Given the sequence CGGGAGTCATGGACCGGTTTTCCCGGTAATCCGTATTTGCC (site CGGGGGTCTGG) , write its reported recombinant UMI read abundance (log10).
1.3
